Listed here are compounds together with their documented EC50.
# System: RSV A2 strain
# assayProtocol: In vitro CPE (CytoPathic Effect) inhibition effect evaluation test, RSV type A
# Format: cell-based
# runConditions: human respiratory syncytial virus; inhibitory effect against RSV type A (RSV A2 strain), HEp-2 cells, CPE inhibition; read-out: EC50

Use the examples below as a reference point.
compound="C/C(=N\\OC1CCC(F)(F)CC1)c1ccc2c(c1)C1(CCCCC1)CN2c1ncc(C(=O)NC2(C(=O)O)C3CC4CC(C3)CC2C4)c(C(F)(F)F)n1 (single isomer, unassigned) [Compound I-476]" experimentalvalue="0.01 to 0.1 µM"
compound="CC(F)(F)c1nc(N2CC3(CCCCC3)c3cc(OC4CCN(c5ncccn5)CC4)ccc32)ncc1C(=O)NC1(C(=O)O)C2CC3CC(C2)CC1C3 (centres unmarked) [Compound I-380]" experimentalvalue="< 0.01 µM"
compound="Cn1cc(-c2ncc(C(=O)NC3(C(=O)O)C4CC5CC(C4)CC3C5)c(C(F)(F)F)n2)c2ccc(OCCC3CCOCC3)cc21 (centres unmarked) [Compound I-116]" experimentalvalue="< 0.01 µM"
compound="O=C(NC1(C(=O)O)C2CC3CC(C2)CC1C3)c1cnc(-c2cn(C3CCC4(CC3)COC4)c3cc(O[C@H]4CC[C@H](N5CC(F)(F)C5)CC4)ccc23)nc1C(F)(F)F (some centres unmarked) [Compound I-498]" experimentalvalue="< 0.01 µM"

Attention now shifts to the item below.
Measured EC50 (RSV A2 strain), entry COC1CCN(C(=O)c2ccc3c(c2)C2(CCCCC2)CN3c2ncc(C(=O)NC3(C(=O)O)C4CC5CC(C4)CC3C5)c(C(C)(F)F)n2)CC1 (centres unmarked) [Compound I-609] : < 0.01 µM

###

# Tested on: RSV A2 strain
# assayProtocol: In vitro CPE (CytoPathic Effect) inhibition effect evaluation test, RSV type A
# Assay type: cell-based
# runConditions: human respiratory syncytial virus; inhibitory effect against RSV type A (RSV A2 strain), HEp-2 cells, CPE inhibition; read-out: EC50
# Experimental: The test sample is diluted in advance to an appropriate concentration with DMSO, and 3-fold series of serial dilutions were prepared on a 384-well plate (0.32 μL/well). […] The luminescent signal was then measured by EnVision (PerkinElmer). […] In the case of evaluation against RSV type B, RSV B (Wash/18537 strain) was infected in the same manner as the type A, cultured for 5 days, and quantitated in the same manner as for the A2 strain.
propertyLabel: EC50

Example compounds with recorded EC50:
compound="O=C(NC1(C(=O)O)C2CC3CC(C2)CC1C3)c1ccc(-c2cn(C(=O)OC3CCCCC3)c3cc(OC4CCN(c5ncccn5)CC4)ccc23)nc1C(F)(F)F (stereo not drawn)" experimentalvalue="< 10 nM"
compound="CC(F)(F)c1nc(N2CC3(CCCCC3)c3cc(C(=O)N4CCN(c5ncccn5)CC4)ccc32)ncc1C(=O)NC1(C(=O)O)C2CC3CC(C2)CC1C3 (stereo not drawn)" experimentalvalue="< 10 nM"
compound="CC1CN(c2ncc(F)cn2)CCC1Oc1ccc2c(-c3ncc(C(=O)NC4(C(=O)O)C5CC6CC(C5)CC4C6)c(C(F)(F)F)n3)cn(C3CCC(F)(F)CC3)c2c1 (stereo not drawn)" experimentalvalue="< 10 nM"
compound="O=C(NC1(C(=O)O)C2CC3CC(C2)CC1C3)c1cnc(-c2cn(CCc3ccccc3)c3cc(OC4CCN(c5ncc(F)cn5)CC4)ccc23)nc1C(F)(F)F (stereo not drawn)" experimentalvalue="< 10 nM"
compound=O=C(NC1(C(=O)O)CCCCC1)c1cnc(N2CC3(CCOCC3)c3cc(OCCN4CCOCC4)ccc32)nc1C(F)(F)F experimentalvalue="10 to 100 nM"

Next item in the queue.
Documented EC50 of CC(F)(F)c1nc(N2CC3(CCCCC3)c3cc(OC4CCC5(CC4)COC5)ccc32)ncc1C(=O)NC1(C(=O)O)C2CC3CC(C2)CC1C3 (stereo not drawn) : < 10 nM
